Taken from patent US20240392024A1.

Readings of EC50 for the listed binders
target desc: T1, human TNFR2 on the cell membrane (human, UniProt P20333 23-461)
T1 construct: whole, on cells; One molecule for all cell formats; also called TNFR2-CHO cells; CHO-TNFR2
T1 sequence (looked up): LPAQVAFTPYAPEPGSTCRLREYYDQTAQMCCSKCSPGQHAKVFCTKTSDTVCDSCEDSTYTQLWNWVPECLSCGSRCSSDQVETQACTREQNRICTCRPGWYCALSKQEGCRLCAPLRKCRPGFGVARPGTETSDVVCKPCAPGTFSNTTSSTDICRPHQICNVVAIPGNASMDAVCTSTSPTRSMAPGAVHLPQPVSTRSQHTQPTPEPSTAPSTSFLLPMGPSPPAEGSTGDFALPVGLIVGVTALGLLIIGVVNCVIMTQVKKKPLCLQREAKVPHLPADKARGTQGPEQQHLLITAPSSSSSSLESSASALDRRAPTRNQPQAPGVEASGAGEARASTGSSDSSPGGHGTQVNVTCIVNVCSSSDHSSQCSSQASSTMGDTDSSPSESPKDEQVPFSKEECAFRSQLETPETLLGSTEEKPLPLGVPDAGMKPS
assay notes: flow cytometry, CHO-TNFR2 cells
readout type: EC50

- 33C12huVH3 + huVL1(P07300) (antibody, V domains shown, Humanized 33C12) VH: EVQLVESGGGLVKPGGSLRLSCAASGFTFSDYTMSWVRQAPGKGLEWVATISTGGSYTYYADSVKGRFTISRDNAKNSLYLQMNSLRAEDTAVYYCARDGGYDGDYFDYWGQGTTVTVSS VL: ENVLTQSPATLSLSPGERATMSCRASSSVSSSYLHWYQQKPGQAPRLWIYRTSNLASGVPARFSGSGSGTDYTLTISRVEPEDFAVYYCQQYSGYPLTFGGGTKLEIK: 1.44 nM
- 11G2huVH4 + huVL2(P07269) (antibody, V domains shown, Humanized 11G2) VH: QVQLVQSGAEVKKPGASVKVSCKASGYTFITYDINWVRQAPGQGLEWIGWIYPRDGNTQYAQKFQGRVTMTTDTSTSTAYMELRSLRSDDTAVYYCARGDRDYGYFDVWGQGTTVTVSS VL: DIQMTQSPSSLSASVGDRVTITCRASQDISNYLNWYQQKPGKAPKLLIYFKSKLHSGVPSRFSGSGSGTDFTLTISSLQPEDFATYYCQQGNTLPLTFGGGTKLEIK: 0.183 nM
- 33C12huVH3 + huVL3(P07304) (antibody, V domains shown, Humanized 33C12) VH: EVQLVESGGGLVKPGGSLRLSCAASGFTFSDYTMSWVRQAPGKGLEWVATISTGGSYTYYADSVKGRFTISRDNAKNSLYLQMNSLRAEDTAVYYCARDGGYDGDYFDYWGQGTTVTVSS VL: EIVLTQSPATLSLSPGERATLSCRASSSVSSSYLHWYQQKPGQAPRLLIYRTSNLATGIPDRFSGSGSGTDFTLTISRLEPEDFAVYYCQQYSGYPLTFGGGTKLEIK: 1.08 nM
- human-mouse chimeric TNFR2 monoclonal antibody 33C12-hFc (antibody, V domains shown, Mouse V regions of clone 33C12 with human constant regions; also called human-mouse chimeric 33C12 antibody) VH: DVKLVESGGGLVKPGGSLKLSCAASGFTFSDYTMSWVRQTPEKRLEWVATISTGGSYTYYPDSVKGRFTISRDNAKNTLYLQMSSLKSEDTAMYYCTRDGGYDGDYFDYWGQGTTLTVSS VL: ENVLTQSPAIMSASPGEKVTMTCRASSSVSSSYLHWYQQKSGASPKLWIYRTSNLASGVPARFSGSGSGTSYSLTISSVEAEDAATYYCQQYSGYPLTFGAGTRLELK: 0.951 nM
- 33C12huVH1 + huVL1(P07298) (antibody, V domains shown, Humanized 33C12) VH: DVQLVESGGGLVKPGGSLRLSCAASGFTFSDYTMSWVRQAPGKGLEWVATISTGGSYTYYPDSVKGRFTISRDNAKNTLYLQMSSLRAEDTAVYYCTRDGGYDGDYFDYWGQGTTVTVSS VL: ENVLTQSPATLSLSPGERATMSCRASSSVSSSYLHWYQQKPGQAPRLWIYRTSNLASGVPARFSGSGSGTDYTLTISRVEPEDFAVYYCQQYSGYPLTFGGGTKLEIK: 0.448 nM
- 33C12huVH3 + huVL2(P07302) (antibody, V domains shown, Humanized 33C12) VH: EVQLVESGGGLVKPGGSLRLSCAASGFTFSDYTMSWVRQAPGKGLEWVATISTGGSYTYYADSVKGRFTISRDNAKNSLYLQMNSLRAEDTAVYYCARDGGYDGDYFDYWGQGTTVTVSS VL: ENVLTQSPATLSLSPGERATLSCRASSSVSSSYLHWYQQKPGQAPRLWIYRTSNLASGVPARFSGSGSGTDFTLTISRLEPEDFAVYYCQQYSGYPLTFGGGTKLEIK: 3.01 nM
